Values compiled from patent US20200102264A1.

- System: HCT116 colon cancer cells
- test: hexoseaminidase cell proliferation assay, HCT116
- Format: cell-based
- applied.conditions: Homo sapiens, HCT-116; HCT116, 24 h
measured.property: IC50

>  <compound>
C/C(=N\NC(=O)c1ccc(O)cc1)c1ccc2ccccc2c1O [MRL24]

>  <IC50>
> 10 µM

$$$$

Log: HCT116 colon cancer cells, compound CC(=O)c1ccc2ccccc2c1O [MRL15] , IC50 = > 10 µM

Value sought: IC50, system HCT116 colon cancer cells, item COc1cc(OC)c2ccc(C=O)c(O)c2c1 [MRL, reference compound] . Result: > 50 µM

Reading of IC50 for C/C(=N\NC(=O)c1cccnc1)c1ccc2ccccc2c1O [MRL17] with HCT116 colon cancer cells: > 2 µM

====

- Tested on: HCT116 colon cancer cells
- test: hexoseaminidase cell proliferation assay, HCT116
- Assay type: cell-based
- applied.conditions: HCT116, 24 h
pIC50: −log10 of the molar value.
Here, each record is paired with measured pIC50 data.

Observe how each entry below is paired with its result.
>  <molecule.smiles>
O=C(N/N=C/c1ccc(F)cc1)c1cc2ccccc2cc1O

>  <pIC50>
< 4.30

$$$$
>  <molecule.smiles>
O=C(N/N=C/c1ccc2ccccc2c1O)c1cc2ccccc2cc1O

>  <pIC50>
5.00

$$$$
>  <molecule.smiles>
C/C(=N\NC(=O)c1cc2ccccc2cc1O)c1ccc2ccccc2c1O

>  <pIC50>
< 5.70

$$$$
>  <molecule.smiles>
NNC(=O)c1cc2ccccc2cc1O

>  <pIC50>
< 4.30

$$$$
>  <molecule.smiles>
O=C(N/N=C/c1ccc(F)c(F)c1)c1cc2ccccc2cc1O

>  <pIC50>
< 4.30

$$$$

Entry under test: `O=C(N/N=C/c1ccc(F)c(F)c1F)c1cc2ccccc2cc1O` . Its pIC50 was < 4.30

Quick note, pIC50 for `O=C(N/N=C/c1ccc(O)c(O)c1O)c1cc2ccccc2cc1O` landed at < 4.30

====

- Test system: SW480 colon cancer cells
- test: hexoseaminidase cell proliferation assay, SW480
- Type: cell-based
- applied.conditions: SW480, 72 h; listed as THB
measured.property: pIC50
# pIC50: negative log10 of molar concentration; output just the value

compound `O=C(N/N=C/c1ccc(O)c(O)c1O)c1cc2ccccc2cc1O` , pIC50 observed: 5.05

====

- Tested on: KU7 bladder cancer cells
- test: hexoseaminidase cell proliferation assay, KU7
- Format: cell-based
- applied.conditions: KU7, 24 h
measured.property: IC50 (µM)

>  <molecule.smiles>
O=C(N/N=C/c1ccc(O)c(O)c1O)c1cc2ccccc2cc1O

>  <IC50, µM>
22

$$$$

1: CC(C)(C)C1=CC(=NNC(=O)c2cc3ccccc3cc2O)C=C(C(C)(C)C)C1=O
2: O=C(N/N=C/c1ccc2ccccc2c1O)c1cc2ccccc2cc1O
Input pair: 1 , 2 . Output: entry with lower IC50. Give the label of your selection. 2
(2: 10 µM, 1: 20 µM)

====

Recorded measurements of G0/G1 (%), one per entry
- Test system: SW480 cells
- test: cell cycle analysis, SW480
- Assay type: cell-based
- applied.conditions: SW480, Table 3
I only need the number, in %, no unit after it.

Worked set:
>  <molecule>
OC[C@H]1O[C@@H]2O[C@H]3[C@H](O)[C@@H](O)[C@@H](O[C@H]4[C@H](O)[C@@H](O)[C@@H](O[C@H]5[C@H](O)[C@@H](O)[C@@H](O[C@H]6[C@H](O)[C@@H](O)[C@@H](O[C@H]7[C@H](O)[C@@H](O)[C@@H](O[C@H]8[C@H](O)[C@@H](O)[C@@H](O[C@H]1[C@H](O)[C@H]2O)O[C@@H]8CO)O[C@@H]7CO)O[C@@H]6CO)O[C@@H]5CO)O[C@@H]4CO)O[C@@H]3CO

>  <unit.info>
%

>  <G0/G1 (%)>
61.1

$$$$
>  <molecule>
COc1cc(OC)c2ccc(C=O)c(O)c2c1 [MRL, reference compound]

>  <unit.info>
%

>  <G0/G1 (%)>
65.3

$$$$
>  <molecule>
O=C(N/N=C/c1ccc(O)c(O)c1)c1cc2ccccc2cc1O

>  <unit.info>
%

>  <G0/G1 (%)>
60.7

$$$$

Consider the record given below.
Input `O=C(N/N=C/c1ccc(O)c(O)c1O)c1cc2ccccc2cc1O` . Output G0/G1 (%): 39.5
